Cited source for all entries: paper PMC13586308

Target: BRD3BD2 (Homo sapiens, UniProt Q15059)
Construct: to the isolated BD1 and BD2 domains of BRD2, BRD3 and BRD4
Sequence (Q15059 306-415 limits assumed): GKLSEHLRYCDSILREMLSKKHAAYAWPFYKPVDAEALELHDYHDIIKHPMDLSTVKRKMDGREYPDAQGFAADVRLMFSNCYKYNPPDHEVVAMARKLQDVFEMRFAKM
Experiment: competitive FP assay, BRD3 BD2 -/+ FKBP12
Type: binding
Details: absence of FKBP12; read-out: Binding to BRD3BD2 - FKBP12 Kd
Field: pKd. Provide a value for each of the molecules that follow.
When answering, recall that pKd equals minus log10 of the concentration in mol/L, and write that number alone.

[in] Which measured pKd belongs to Cc1sc2c(c1C)C(c1ccc(Cl)cc1)=NC(CC(=O)NCCOCCn1cc(COCC3CN(Cc4ccccn4)C(=O)C4CCCC3N4S(=O)(=O)c3cc(Cl)cc(Cl)c3)nn1)c1nnc(C)n1-2 (stereo not shown) , tested on BRD3BD2 (Homo sapiens, UniProt Q15059)?
[out] 6.82

[in] Similarly, Cc1sc2c(c1C)C(c1ccc(C#CCNC(=O)COCCn3cc(C4CN(Cc5ccccn5)C(=O)C5CCCC4N5S(=O)(=O)c4cc(Cl)cc(Cl)c4)nn3)cc1)=NC(CC(=O)OC(C)(C)C)c1nnc(C)n1-2 (stereo not shown) ?
[out] 7.00

[in] Similarly, Cc1sc2c(c1C)C(c1ccc(Cl)cc1)=NC(CC(=O)N1CCC3(CC1)CC(n1cc(C4CN(Cc5ccccn5)C(=O)C5CCCC4N5S(=O)(=O)c4cc(Cl)cc(Cl)c4)nn1)C3)c1nnc(C)n1-2 (stereo not shown) [a13c] ?
[out] 6.02

[in] Similarly, Cc1sc2c(c1C)C(c1ccc(Cl)cc1)=NC(CC(=O)NCCOCCn1cc(COCC3CN(C(C)c4ccccn4)C(=O)C4CCCC3N4S(=O)(=O)c3cc(Cl)cc(Cl)c3)nn1)c1nnc(C)n1-2 (stereo not shown) ?
[out] 6.77

---

Biological target: FKBP12 (Homo sapiens)
Sequence (P62942 whole entry): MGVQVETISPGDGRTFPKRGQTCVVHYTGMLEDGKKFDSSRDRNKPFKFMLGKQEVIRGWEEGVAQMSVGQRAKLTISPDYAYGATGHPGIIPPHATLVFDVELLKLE
parameter-measured: Kd (nM)
The reply should contain only the number, in nM.

[in] Any idea what Kd was measured for Cc1sc2c(c1C)C(c1ccc(Cl)cc1)=NC(CC(=O)N1CCC(N3CCC(Cn4cc(C5CN(Cc6ccccn6)C(=O)C6CCCC5N6S(=O)(=O)c5cc(Cl)cc(Cl)c5)nn4)CC3)CC1)c1nnc(C)n1-2 (centres unmarked) [a10c] ?
[out] 0.3

[in] Similarly, Cc1sc2c(c1C)C(c1ccc(Cl)cc1)=NC(CC(=O)N1CCC(CN3CCC(Cn4cc(C5CN(Cc6ccccn6)C(=O)C6CCCC5N6S(=O)(=O)c5cc(Cl)cc(Cl)c5)nn4)CC3)CC1)c1nnc(C)n1-2 (centres unmarked) ?
[out] 2.1

[in] Similarly, Cc1sc2c(c1C)C(c1ccc(Cl)cc1)=NC(CC(=O)N1CCN(CCCCn3cc(COCC4CN(Cc5ccccn5)C(=O)C5CCCC4N5S(=O)(=O)c4cc(Cl)cc(Cl)c4)nn3)CC1)c1nnc(C)n1-2 (centres unmarked) ?
[out] 0.9

[in] Similarly, Cc1sc2c(c1C)C(c1ccc(Cl)cc1)=NC(CC(=O)N1CCC(CN3CCC(n4cc(COCC5CN(Cc6ccccn6)C(=O)C6CCCC5N6S(=O)(=O)c5cc(Cl)cc(Cl)c5)nn4)CC3)CC1)c1nnc(C)n1-2 (centres unmarked) ?
[out] 2.3

[in] Similarly, Cc1sc2c(c1C)C(c1ccc(Cl)cc1)=NC(CC(=O)N1CCC(N3CCC(Cn4cc(COCC5CN(Cc6ccccn6)C(=O)C6CCCC5N6S(=O)(=O)c5cc(Cl)cc(Cl)c5)nn4)CC3)CC1)c1nnc(C)n1-2 (centres unmarked) [a10d] ?
[out] 1.6

---

Molecular target: BRD4^BD1 (Homo sapiens)
Construct: to the isolated BD1 and BD2 domains of BRD2, BRD3 and BRD4
Experiment: competitive fluorescence polarization assay, BRD4 BD1 -/+ presenter protein
Format: binding
Details: values quoted in rebuttal letter (earlier version of Tab. 1); read-out: binding to BRD4BD1 + FKBP12
parameter-measured: Kd (nM)
The reply should contain only the number, in nM.

[in] Any idea what Kd was measured for Cc1sc2c(c1C)C(c1ccc(Cl)cc1)=NC(CC(=O)N1CCC3(CC1)CC(n1cc(C4CN(Cc5ccccn5)C(=O)C5CCCC4N5S(=O)(=O)c4cc(Cl)cc(Cl)c4)nn1)C3)c1nnc(C)n1-2 (stereo not drawn) [a13c] ?
[out] 20

[in] Similarly, Cc1sc2c(c1C)C(c1ccc(Cl)cc1)=NC(CC(=O)NCCOCCn1cc(COCC3CN(Cc4ccccn4)C(=O)C4CCCC3N4S(=O)(=O)c3cc(Cl)cc(Cl)c3)nn1)c1nnc(C)n1-2 (stereo not drawn) ?
[out] 26

[in] Similarly, Cc1sc2c(c1C)C(c1ccc(Cl)cc1)=NC(CC(=O)NCCOCCn1cc(COCC3CN(C(C)c4ccccn4)C(=O)C4CCCC3N4S(=O)(=O)c3cc(Cl)cc(Cl)c3)nn1)c1nnc(C)n1-2 (stereo not drawn) ?
[out] 32

---

Field: Kd. Provide a value for each of the compounds that follow.
Target: BRD4^BD1 (Homo sapiens)
Construct: to the isolated BD1 and BD2 domains of BRD2, BRD3 and BRD4
Test: competitive fluorescence polarization assay, BRD4 BD1 -/+ presenter protein
Assay type: binding
Conditions: absence of FKBP12; 2 nM JQ1-FL tracer; read-out: Binding to BRD4^BD1 - FKBP12 Kd

[in] Any idea what Kd was measured for Cc1sc2c(c1C)C(c1ccc(Cl)cc1)=NC(CC(=O)NCCOCCn1cc(COCC3CN(C(C)c4ccccn4)C(=O)C4CCCC3N4S(=O)(=O)c3cc(Cl)cc(Cl)c3)nn1)c1nnc(C)n1-2 (stereo not drawn) [a1dj] ?
[out] 470 nM

[in] Similarly, Cc1sc2c(c1C)C(c1ccc(Cl)cc1)=NC(CC(=O)N1CCN(CCCn3cc(COCC4CN(Cc5ccccn5)C(=O)C5CCCC4N5S(=O)(=O)c4cc(Cl)cc(Cl)c4)nn3)CC1)c1nnc(C)n1-2 (stereo not drawn) [a5d] ?
[out] 740 nM

[in] Similarly, C=CC1CN(Cc2ccccn2)C(=O)C2CCCC1N2S(=O)(=O)c1ccc(-c2cn(CCOCCNC(=O)CC3N=C(c4ccc(Cl)cc4)c4c(sc(C)c4C)-n4c(C)nnc43)nn2)c(Cl)c1 (stereo not drawn) [a1h] ?
[out] 100 nM

---

Target: BRD4^BD1 (Homo sapiens, UniProt O60885)
Construct: to the isolated BD1 and BD2 domains of BRD2, BRD3 and BRD4
Assay: competitive fluorescence polarization assay, BRD4 BD1 -/+ presenter protein
Type: binding
Settings: presence of 15 µM FKBP12; read-out: Binding to BRD4^BD1 + FKBP12 Kd (converted)
parameter-measured: Kd (µM)
The reply should contain only the number, in µM.

[in] Any idea what Kd was measured for C=CC1CN(Cc2cn(CCOCCOCCNC(=O)CC3N=C(c4ccc(Cl)cc4)c4c(sc(C)c4C)-n4c(C)nnc43)nn2)C(=O)C2CCCC1N2S(=O)(=O)c1cc(Cl)cc(Cl)c1 (centres unmarked) [a2i] ?
[out] 0.29

[in] Similarly, Cc1sc2c(c1C)C(c1ccc(Cl)cc1)=NC(CC(=O)N1CCC(N3CCC(Cn4cc(COCC5CN(Cc6ccccn6)C(=O)C6CCCC5N6S(=O)(=O)c5cc(Cl)cc(Cl)c5)nn4)CC3)CC1)c1nnc(C)n1-2 (centres unmarked) [a10d] ?
[out] 0.1

[in] Similarly, C=C[C@H]1CN(Cc2ccccn2)C(=O)[C@@H]2CCC[C@H]1N2S(=O)(=O)c1ccc(-c2cn(CCOCCOCCNC(=O)C[C@@H]3N=C(c4ccc(Cl)cc4)c4c(sc(C)c4C)-n4c(C)nnc43)nn2)c(Cl)c1 [a2h] ?
[out] 2.4

[in] Similarly, Cc1sc2c(c1C)C(c1ccc(Cl)cc1)=NC(CC(=O)N1CCC(CN3CCC(n4cc(COCC5CN(Cc6ccccn6)C(=O)C6CCCC5N6S(=O)(=O)c5cc(Cl)cc(Cl)c5)nn4)CC3)CC1)c1nnc(C)n1-2 (centres unmarked) [a7d] ?
[out] 0.31

[in] Similarly, Cc1sc2c(c1C)C(c1ccc(Cl)cc1)=NC(CC(=O)NCCOCCn1cc(COC(C)C3CN(Cc4ccccn4)C(=O)C4CCCC3N4S(=O)(=O)c3cc(Cl)cc(Cl)c3)nn1)c1nnc(C)n1-2 (centres unmarked) [a1f] ?
[out] 0.14

---

Target: BRD4^BD1 (Homo sapiens, UniProt O60885)
Construct: to the isolated BD1 and BD2 domains of BRD2, BRD3 and BRD4
Test: competitive fluorescence polarization assay, BRD4 BD1 -/+ presenter protein
Format: binding
Settings: presence of 15 µM FKBP12; read-out: Binding to BRD4^BD1 + FKBP12 Kd (converted)
Field: Kd. Provide a value for each of the compounds that follow.
The reply should contain only the number, in nM.

[in] Any idea what Kd was measured for Cc1sc2c(c1C)C(c1ccc(Cl)cc1)=NC(CC(=O)N1CCC(CN3CCC(Cn4cc(C5CN(Cc6ccccn6)C(=O)C6CCCC5N6S(=O)(=O)c5cc(Cl)cc(Cl)c5)nn4)CC3)CC1)c1nnc(C)n1-2 (stereo not shown) ?
[out] 150

[in] Similarly, Cc1sc2c(c1C)C(c1ccc(Cl)cc1)=NC(CC(=O)N1CCN(CCCCn3cc(COCC4CN(Cc5ccccn5)C(=O)C5CCCC4N5S(=O)(=O)c4cc(Cl)cc(Cl)c4)nn3)CC1)c1nnc(C)n1-2 (stereo not shown) ?
[out] 400

[in] Similarly, Cc1sc2c(c1C)C(c1ccc(Cl)cc1)=NC(CC(=O)N1CC(CN3CCC(Cn4cc(C5CN(Cc6ccccn6)C(=O)C6CCCC5N6S(=O)(=O)c5cc(Cl)cc(Cl)c5)nn4)CC3)C1)c1nnc(C)n1-2 (stereo not shown) [a12c] ?
[out] 230

[in] Similarly, Cc1sc2c(c1C)C(c1ccc(Cl)cc1)=NC(CC(=O)N1CCC(CN3CCC(Cn4cc(COCC5CN(Cc6ccccn6)C(=O)C6CCCC5N6S(=O)(=O)c5cc(Cl)cc(Cl)c5)nn4)CC3)CC1)c1nnc(C)n1-2 (stereo not shown) ?
[out] 84

[in] Similarly, Cc1sc2c(c1C)C(c1ccc(Cl)cc1)=NC(CC(=O)N1CCC(N3CCC(n4cc(C5CN(Cc6ccccn6)C(=O)C6CCCC5N6S(=O)(=O)c5cc(Cl)cc(Cl)c5)nn4)CC3)CC1)c1nnc(C)n1-2 (stereo not shown) ?
[out] 180

[in] Similarly, Cc1sc2c(c1C)C(c1ccc(Cl)cc1)=NC(CC(=O)N1CCC(CN3CCC(n4cc(C5CN(Cc6ccccn6)C(=O)C6CCCC5N6S(=O)(=O)c5cc(Cl)cc(Cl)c5)nn4)CC3)CC1)c1nnc(C)n1-2 (stereo not shown) ?
[out] 180

[in] Similarly, Cc1sc2c(c1C)C(c1ccc(C#CCNC(=O)COCCn3cc(COCC4CN(Cc5ccccn5)C(=O)C5CCCC4N5S(=O)(=O)c4cc(Cl)cc(Cl)c4)nn3)cc1)=NC(CC(=O)OC(C)(C)C)c1nnc(C)n1-2 (stereo not shown) ?
[out] 200

[in] Similarly, Cc1sc2c(c1C)C(c1ccc(Cl)cc1)=NC(CC(=O)N1CCC3(CC1)CC(n1cc(C4CN(Cc5ccccn5)C(=O)C5CCCC4N5S(=O)(=O)c4cc(Cl)cc(Cl)c4)nn1)C3)c1nnc(C)n1-2 (stereo not shown) [a13c] ?
[out] 35

[in] Similarly, Cc1sc2c(c1C)C(c1ccc(Cl)cc1)=NC(CC(=O)NCCOCCn1cc(COCC3CN(CC(=O)N4CCC(C)CC4)C(=O)C4CCCC3N4S(=O)(=O)c3cc(Cl)cc(Cl)c3)nn1)c1nnc(C)n1-2 (stereo not shown) ?
[out] 200

[in] Similarly, Cc1sc2c(c1C)C(c1ccc(Cl)cc1)=NC(CC(=O)N1CC(CN3CCC(n4cc(COCC5CN(Cc6ccccn6)C(=O)C6CCCC5N6S(=O)(=O)c5cc(Cl)cc(Cl)c5)nn4)CC3)C1)c1nnc(C)n1-2 (stereo not shown) [a11d] ?
[out] 40
